Answer each item with its documented pIC50.
Molecular target: GroEL/ES (Escherichia coli)
Construct: made in house; host or cells: GroEL in E. coli DH5a; GroES in E. coli BL21 (DE3)
Sequence (P0A6F5 2-548): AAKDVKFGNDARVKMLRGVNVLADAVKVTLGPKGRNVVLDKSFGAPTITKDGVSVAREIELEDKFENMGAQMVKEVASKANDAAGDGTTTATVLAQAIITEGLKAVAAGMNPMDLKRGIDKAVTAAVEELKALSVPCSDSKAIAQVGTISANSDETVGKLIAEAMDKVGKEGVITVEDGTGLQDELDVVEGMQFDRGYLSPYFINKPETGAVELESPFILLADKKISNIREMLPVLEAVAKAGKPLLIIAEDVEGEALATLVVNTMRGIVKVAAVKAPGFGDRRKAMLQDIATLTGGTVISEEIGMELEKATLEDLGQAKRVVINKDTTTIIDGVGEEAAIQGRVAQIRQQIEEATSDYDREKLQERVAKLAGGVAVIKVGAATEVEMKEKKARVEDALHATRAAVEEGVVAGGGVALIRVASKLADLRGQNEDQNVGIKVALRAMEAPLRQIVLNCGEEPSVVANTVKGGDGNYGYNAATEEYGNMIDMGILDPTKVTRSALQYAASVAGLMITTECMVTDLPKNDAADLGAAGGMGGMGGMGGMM
Experiment: GroEL/ES-mediated dMDH refolding assay
Format: biochemical, E. coli
Keep in mind that pIC50 stands for -log10 of concentration in molar terms.

Inquiry: Query for GroEL/ES (Escherichia coli): what pIC50 does the record show for Cc1ccc(O)c(C(=O)Nc2cc(Cl)c(C(C#N)c3ccc(Cl)cc3)cc2C)c1 (stereo not drawn) ?
Reply text: 4.39

Inquiry: Entry to check: Cc1cc(C(C#N)c2ccc(Cl)cc2)c(Cl)cc1NC(=O)c1ccccc1F (stereo not drawn)
Reply text: 4.05

Inquiry: Try Cc1cc(C(C#N)c2ccc(Cl)cc2)c(Cl)cc1NC(=O)c1ccccc1 (stereo not drawn) next.
Reply text: 4.13

Inquiry: Another: O=C(Nc1ccc(Oc2ccc(Cl)cc2)cc1)c1cc(Cl)ccc1O
Reply text: 4.34

Inquiry: Next compound up: Cc1cc(C(C#N)c2ccc(Cl)cc2)c(Cl)cc1NC(=O)c1cc(Br)cc(Br)c1O (stereo not drawn)
Reply text: 5.72

Inquiry: Another compound: O=C(Nc1cc(Cl)cc(Cl)c1O)c1c(O)c(Cl)cc(Cl)c1Cl [Oxyclosanide, reference compound]
Reply text: 4.35

Inquiry: Now consider O=C(Nc1ccc(Oc2ccc(Cl)cc2)c(Cl)c1)c1cc(Cl)ccc1O and answer again.
Reply text: 4.52

Inquiry: Try this compound next: O=C(Nc1ccc(Cc2ccccc2)cc1)c1cc(Cl)ccc1O
Reply text: 4.11

Inquiry: Now consider COc1c(Br)cccc1C(=O)Nc1cc(Cl)c(C(C#N)c2ccc(Cl)cc2)cc1C (stereo not drawn) and answer again.
Reply text: 4.31

Inquiry: Now this one: COc1ccc(C(=O)Nc2cc(Cl)c(C(C#N)c3ccc(Cl)cc3)cc2C)cc1 (stereo not drawn)
Reply text: 4.19

Inquiry: What do you have for Cc1cc(C(C#N)c2ccc(Cl)cc2)c(Cl)cc1NC(=O)c1cc(Br)ccc1O (stereo not drawn) ?
Reply text: 4.64

Inquiry: Follow-up item: COc1ccc(Cl)cc1C(=O)Nc1ccc(C(C#N)c2ccccc2)cc1 (stereo not drawn)
Reply text: 4.03

* * *

Assay: HEK 293 kidney cell viability / cytotoxicity assay (Alamar Blue)
Assay type: cell-based
Settings: human, HEK 293 kidney cells; Table 3; 48 h incubation, Alamar Blue; read-out: HEK 293 Kidney Cell Viability CC50
reported_metric: CC50 at 48 h (µM)
Entry rule: numbers only, all in µM.

Inquiry: Report CC50 at 48 h for O=C(Nc1ccc(CCc2ccccc2)cc1)c1cc(Cl)ccc1O please.
Reply text: 4.3

Inquiry: O=C(Nc1ccc(Oc2ccccc2)cc1)c1cc(Cl)ccc1O , same question.
Reply text: 20

* * *

Target: native MDH (Sus scrofa, UniProt P00346)
Construct: soluble pig heart MDH from Roche, product #10127248001; purchased Roche 10127248001; host or cells: pig heart
Sequence (P00346 25-338): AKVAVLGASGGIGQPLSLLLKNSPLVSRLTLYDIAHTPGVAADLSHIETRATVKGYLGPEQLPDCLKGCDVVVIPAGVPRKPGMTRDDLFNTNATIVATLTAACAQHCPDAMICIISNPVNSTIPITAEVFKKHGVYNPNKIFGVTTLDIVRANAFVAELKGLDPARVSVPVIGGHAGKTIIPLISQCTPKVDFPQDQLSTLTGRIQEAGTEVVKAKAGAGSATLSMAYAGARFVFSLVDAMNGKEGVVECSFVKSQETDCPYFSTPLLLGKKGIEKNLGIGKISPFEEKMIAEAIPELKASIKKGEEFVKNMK
Assay: Native MDH enzymatic activity counter-screen
Format: biochemical, pig
Details: Table 1; compounds added after refolding and EDTA quench; read-out: Biochemical Assay IC50 Native MDH Activity
reported_metric: IC50 (µM)
Quick note: give the figure in µM, leave out the unit.

Inquiry: What does the record list as IC50 for O=C(Nc1ccc(Sc2nc3ccccc3s2)c(Cl)c1)c1cc(Br)cc(Br)c1O [Compound 1, reference compound] ?
Reply text: 6.3

Inquiry: Follow-up item: Cc1cc(C(C#N)c2ccc(Cl)cc2)c(Cl)cc1NC(=O)c1cc(I)cc(I)c1O (stereo not drawn) [Closantel, reference compound]
Reply text: 6

Inquiry: What do you have for O=C(Nc1cc(Cl)cc(Cl)c1O)c1c(O)c(Cl)cc(Cl)c1Cl [Oxyclosanide, reference compound] ?
Reply text: 54

* * *

Test: HEK 293 kidney cell viability / cytotoxicity assay (Alamar Blue)
Format: cell-based
Details: human, HEK 293 kidney cells; Table 2; 48 h incubation, Alamar Blue; read-out: HEK 293 Kidney Cell Viability CC50
Hi there, I'd appreciate the recorded CC50 at 48 h for every entry that follows.

Inquiry: So what's the measured CC50 at 48 h for this one? Cc1cc(C(C#N)c2ccc(Cl)cc2)c(Cl)cc1NC(=O)c1cccc([N+](=O)[O-])c1 (stereo not drawn)
Reply text: > 100 µM

Inquiry: Same question, Cc1cc(C(C#N)c2ccc(Cl)cc2)c(Cl)cc1NC(=O)c1ccccc1[N+](=O)[O-] (stereo not drawn) this time
Reply text: > 100 µM

Inquiry: Also COc1c(Cl)cccc1C(=O)Nc1cc(Cl)c(C(C#N)c2ccc(Cl)cc2)cc1C (stereo not drawn) ?
Reply text: > 100 µM

* * *

I'd be grateful if you could share measured IC50 for these entries.
Target: GroEL/ES (Escherichia coli)
Construct: made in house; host or cells: GroEL in E. coli DH5a; GroES in E. coli BL21 (DE3)
Assay: GroEL/ES-mediated dMDH refolding assay
Format: biochemical, E. coli
The figure you give is taken to be in µM; do not add the unit.

Inquiry: Give GroEL/ES (Escherichia coli) IC50 for COc1cc(Cl)ccc1C(=O)Nc1cc(Cl)c(C(C#N)c2ccc(Cl)cc2)cc1C (centres unmarked)
Reply text: 59

Inquiry: Now the same for Cc1cc(C(C#N)c2ccc(Cl)cc2)c(Cl)cc1NC(=O)c1ccc(O)cc1 (centres unmarked)
Reply text: 47

Inquiry: Next up: Cc1cc(C(C#N)c2ccc(Cl)cc2)c(Cl)cc1NC(=O)c1ccc(Cl)cc1 (centres unmarked)
Reply text: 63

Inquiry: // next record COc1ccc(Br)cc1C(=O)Nc1cc(Cl)c(C(C#N)c2ccc(Cl)cc2)cc1C (centres unmarked)
Reply text: 71

Inquiry: Another compound: COc1c(Br)cc(Br)cc1C(=O)Nc1cc(Cl)c(C(C#N)c2ccc(Cl)cc2)cc1C (centres unmarked)
Reply text: 30

Inquiry: Same lookup for O=C(Nc1ccc(Oc2ccccc2)c(Cl)c1)c1cc(Cl)ccc1O , please.
Reply text: 51

Inquiry: Follow-up item: O=C(Nc1ccc(Sc2nc3ccccc3s2)c(Cl)c1)c1cc(Br)cc(Br)c1O [Compound 1, reference compound]
Reply text: 2

Inquiry: Also COc1c(Cl)cccc1C(=O)Nc1cc(Cl)c(C(C#N)c2ccc(Cl)cc2)cc1C (centres unmarked) ?
Reply text: 81

Inquiry: Lookup O=C(Nc1ccc(CCc2ccccc2)cc1)c1cc(Cl)ccc1O
Reply text: 54

* * *

Assay: HEK 293 kidney cell viability / cytotoxicity assay (Alamar Blue)
Format: cell-based
Settings: human, HEK 293 kidney cells; Table 2; 48 h incubation, Alamar Blue; read-out: HEK 293 Kidney Cell Viability CC50
reported_metric: CC50 at 48 h (µM)
Give a bare numeral; the unit µM is implied.

Inquiry: Would you mind telling me what CC50 at 48 h value was observed for COc1cccc(C(=O)Nc2cc(Cl)c(C(C#N)c3ccc(Cl)cc3)cc2C)c1 (stereo not drawn) ?
Reply text: 50

Inquiry: Try this molecule too: Cc1cc(C(C#N)c2ccc(Cl)cc2)c(Cl)cc1NC(=O)c1cc(Cl)cc(Cl)c1O (stereo not drawn)
Reply text: 44

Inquiry: Let us now turn to Cc1cc(C(C#N)c2ccc(Cl)cc2)c(Cl)cc1NC(=O)c1cccc(O)c1 (stereo not drawn)
Reply text: 44

* * *

Biological target: HSP60/10 (Homo sapiens)
Construct: octa-Histidine (His8) tag, TEV-cleavable (N, cleaved yes); made in house; host or cells: HSP60 in Rosetta 2 (DE3) E. coli; HSP10 in Rosetta 2 (DE3) pLysS
Sequence (P10809 27-573): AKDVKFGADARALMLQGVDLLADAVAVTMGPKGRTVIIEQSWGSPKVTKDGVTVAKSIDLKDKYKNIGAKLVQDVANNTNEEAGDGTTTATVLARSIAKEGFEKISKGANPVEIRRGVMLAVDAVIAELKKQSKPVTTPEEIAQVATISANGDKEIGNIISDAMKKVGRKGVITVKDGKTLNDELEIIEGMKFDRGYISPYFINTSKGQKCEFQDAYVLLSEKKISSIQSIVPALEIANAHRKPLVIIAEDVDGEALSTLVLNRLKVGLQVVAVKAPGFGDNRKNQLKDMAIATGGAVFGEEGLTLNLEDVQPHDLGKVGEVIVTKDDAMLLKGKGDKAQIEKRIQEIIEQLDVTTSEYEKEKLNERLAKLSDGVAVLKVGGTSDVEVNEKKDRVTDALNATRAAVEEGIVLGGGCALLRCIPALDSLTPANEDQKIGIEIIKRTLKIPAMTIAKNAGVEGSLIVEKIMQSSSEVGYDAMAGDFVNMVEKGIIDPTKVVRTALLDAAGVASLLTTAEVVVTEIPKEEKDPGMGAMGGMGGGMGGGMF
Test: HSP60/10-mediated dMDH refolding assay
Format: biochemical
Conditions: Table 2; 37° C., 1 mM ATP; read-out: Biochemical Assay IC50 HSP60/10-dMDH Refolding
Give measured IC50 for each item. Keep answers brief.

Inquiry: For the molecule Cc1cc(C(C#N)c2ccc(Cl)cc2)c(Cl)cc1NC(=O)c1ccc(Br)cc1 (centres unmarked) , what IC50 is on record?
Reply text: > 100 µM

Inquiry: Continue with Cc1cc(C(C#N)c2ccc(Cl)cc2)c(Cl)cc1NC(=O)c1ccccc1Br (centres unmarked)
Reply text: > 100 µM

Inquiry: Also, COc1ccc(C)cc1C(=O)Nc1cc(Cl)c(C(C#N)c2ccc(Cl)cc2)cc1C (centres unmarked) please.
Reply text: > 100 µM

Inquiry: Lookup Cc1cc(C(C#N)c2ccc(Cl)cc2)c(Cl)cc1NC(=O)c1ccc(F)cc1 (centres unmarked)
Reply text: > 100 µM

Inquiry: Can you handle Cc1cc(C(C#N)c2ccc(Cl)cc2)c(Cl)cc1NC(=O)c1cccc(N)c1 (centres unmarked) next?
Reply text: > 100 µM

Inquiry: Okay, and COc1ccc(Cl)cc1C(=O)Nc1cc(Cl)c(C(C#N)c2ccc(Cl)cc2)cc1C (centres unmarked) ?
Reply text: > 100 µM

Inquiry: One more molecule: Cc1cc(C(C#N)c2ccc(Cl)cc2)c(Cl)cc1NC(=O)c1cccc([N+](=O)[O-])c1 (centres unmarked)
Reply text: > 100 µM

Inquiry: // query: Cc1cc(C(C#N)c2ccc(Cl)cc2)c(Cl)cc1NC(=O)c1cccc(Cl)c1 (centres unmarked)
Reply text: > 100 µM
